pKi: −log10 of the molar value.
Several publications report pKi on Carbonic anhydrase 1 (Homo sapiens, UniProt P00915); those values are gathered here.
PROPERTY_LABEL: pKi

Here's what some known entries look like.
CSCC[C@@H](NC(=O)OC(C)(C)C)C(=O)NCc1ccc(S(N)(=O)=O)cc1 = 5.27
NS(=O)(=O)c1ccc(N2N=C(c3ccc(Cl)cc3)CC2c2ccc(O)cc2)cc1 (stereo not drawn) = 8.35
CCCn1c2ccccc2c2nnc(SCc3cn(-c4ccc(S(N)(=O)=O)cc4)nn3)nc21 = 5.40
CC[C@@H](C)[C@@H](NC(=O)OC(C)(C)C)C(=O)NCc1ccc(S(N)(=O)=O)cc1 = 6.75
Cc1ccc(O)c(-c2cc(C(=O)Nc3ccc(S(N)(=O)=O)cc3)[nH]n2)c1 = 6.66

a: NS(=O)(=O)c1ccc2c(c1)CCN2C(=O)CC1CCCC1
b: COc1ccc(S(N)(=O)=O)cc1
c: NS(=O)(=O)c1ccc(CCNC(=O)c2cc(-c3cc(Cl)ccc3O)n[nH]2)cc1
d: CC1CCC2(CC1)N=C(N)N=C(N)N2c1ccc(S(N)(=O)=O)cc1 (stereo not drawn)
e: CN1C(=O)C(=C2C(=O)Nc3c(Br)cccc32)SC1=Nc1ccc(S(N)(=O)=O)cc1
Prompt: Ascending by pKi, please: list the compounds accordingly. Put the labels in the requested order and write them down.
Response: b, c, e, d, a

* * *

Several publications report Ki on Carbonic anhydrase 1 (Homo sapiens, UniProt P00915); those values are gathered here.
PROPERTY_LABEL: Ki (nM)

NS(=O)(=O)c1ccc2c(c1)CCN2C(=O)C1CCCC1 = 60.9
CN(CCCCCOC(=O)c1ccc(S(N)(=O)=O)cc1)CCCOC(=O)c1c2ccccc2cc2ccccc12 = 339
COc1ccc2nccc(Nc3ccccc3S(N)(=O)=O)c2c1 = 864
COc1cc(/C=C/C(=O)OCCCCCCCN(C)CCOC(=O)c2ccc(S(N)(=O)=O)cc2)cc(OC)c1OC = 533
COc1cc(/C=C/C(=O)OCCCCCCCN(C)CCCCCCCOC(=O)c2ccc(S(N)(=O)=O)cc2)cc(OC)c1OC = 73.7
NS(=O)(=O)c1ccc(NC(=O)Nc2cccc3ccccc23)cc1 = 243
O=C(O)c1ccc(NC(=S)NC(=O)c2ccc(Cl)cc2)cc1 = 8800
NS(=O)(=O)CCCCn1cc(CNC(=O)Nc2ccc(C(F)(F)F)cc2)nn1 = 5390
NS(=O)(=O)c1cccc(NC(=O)NCCNCc2ccccc2)c1 = 928

P: NC1=NC2(CCCCC2)N(c2ccc(S(N)(=O)=O)cc2)C(N)=N1
Q: CC(C)c1ccc(C=CC(=O)c2ccc3[nH]c(=O)oc3c2)cc1
Prompt: Endpoint returns whichever of P and Q has the numerically higher Ki. Answer by stating the label of the chosen item.
Response: Q
(Q: 37100 nM, P: 437 nM)

* * *

Several publications report pKi on Carbonic anhydrase 1 (Homo sapiens, UniProt P00915); those values are gathered here.
pKi: −log10 of the molar value.
PROPERTY_LABEL: pKi

CCn1c(C(=O)Nc2ccc(S(N)(=O)=O)cc2)cc2sccc21 = 6.57
Cc1ccc2c(c1)C(=C1SC(=Nc3ccc(S(N)(=O)=O)cc3)N(C)C1=O)C(=O)N2 = 7.06
Cc1ccc(NS(=O)(=O)c2ccc(Nc3ncc4c(n3)CC(c3ccccc3)CC4=O)cc2)cc1 (stereo not drawn) = 4.34
CC(C)[C@@H](NC(=O)OC(C)(C)C)C(=O)NCc1ccc(S(N)(=O)=O)cc1 = 6.12

1: CS(=O)(=O)c1ccc2nc(NC(=O)CNC(=O)OCC3c4ccccc4-c4ccccc43)sc2c1
2: NS(=O)(=O)c1ccc(C(=O)N2CC(=O)N3CCc4ccccc4C3C2)cc1 (stereo not drawn)
Prompt: Given the listed items, does 1 or 2 have the lesser reported pKi? Answer by stating the label of the chosen item.
Response: 1

I: NS(=O)(=O)c1ccc(CCNC(=O)[C@@H](CSc2ccccc2)NC(=O)OCc2ccccc2)cc1
II: NS(=O)(=O)c1ccc(NC(=O)Nc2ccc(OCc3cn(CCCS(=O)(=O)[O-])nn3)cc2)cc1.[Na+]
Prompt: Given the listed items, does I or II have the lesser reported pKi? Answer by stating the label of the chosen item.
Response: I

P: Cc1ccc2nc(NC(=O)CNC(=O)OCC3c4ccccc4-c4ccccc43)sc2c1
Q: COc1ccccc1C1=NN(c2ccc(S(N)(=O)=O)cc2)C(c2ccc3c(c2)OCO3)C1 (stereo not drawn)
Prompt: Given the listed items, does P or Q have the lesser reported pKi? Answer by stating the label of the chosen item.
Response: P
(P: 4.14, Q: 4.55)

1: NS(=O)(=O)c1ccc(NC(=O)c2cc(-c3cc(Cl)ccc3O)n[nH]2)cc1
2: CC(=O)Nc1cc(S(N)(=O)=O)ccc1OCc1cn(CCCCS(=O)(=O)O)nn1
3: Cn1c(C(=O)Nc2ccc(S(N)(=O)=O)cc2)cc2occc21
4: Cc1ccc(C2=NN(c3ccc(S(N)(=O)=O)cc3)C(c3ccc(O)cc3)C2)cc1 (stereo not drawn)
Prompt: Rank the 4 compounds: largest pKi first, smallest last. Put the labels in the requested order and write them down.
Response: 4, 1, 3, 2
